// provenance: patent US20130267516A1

assay target: human CaSR (Homo sapiens, UniProt P41180)
Construct: The ORF coding for the human CaSR (genebank: NM_000388)
Sequence (P41180 20-1078): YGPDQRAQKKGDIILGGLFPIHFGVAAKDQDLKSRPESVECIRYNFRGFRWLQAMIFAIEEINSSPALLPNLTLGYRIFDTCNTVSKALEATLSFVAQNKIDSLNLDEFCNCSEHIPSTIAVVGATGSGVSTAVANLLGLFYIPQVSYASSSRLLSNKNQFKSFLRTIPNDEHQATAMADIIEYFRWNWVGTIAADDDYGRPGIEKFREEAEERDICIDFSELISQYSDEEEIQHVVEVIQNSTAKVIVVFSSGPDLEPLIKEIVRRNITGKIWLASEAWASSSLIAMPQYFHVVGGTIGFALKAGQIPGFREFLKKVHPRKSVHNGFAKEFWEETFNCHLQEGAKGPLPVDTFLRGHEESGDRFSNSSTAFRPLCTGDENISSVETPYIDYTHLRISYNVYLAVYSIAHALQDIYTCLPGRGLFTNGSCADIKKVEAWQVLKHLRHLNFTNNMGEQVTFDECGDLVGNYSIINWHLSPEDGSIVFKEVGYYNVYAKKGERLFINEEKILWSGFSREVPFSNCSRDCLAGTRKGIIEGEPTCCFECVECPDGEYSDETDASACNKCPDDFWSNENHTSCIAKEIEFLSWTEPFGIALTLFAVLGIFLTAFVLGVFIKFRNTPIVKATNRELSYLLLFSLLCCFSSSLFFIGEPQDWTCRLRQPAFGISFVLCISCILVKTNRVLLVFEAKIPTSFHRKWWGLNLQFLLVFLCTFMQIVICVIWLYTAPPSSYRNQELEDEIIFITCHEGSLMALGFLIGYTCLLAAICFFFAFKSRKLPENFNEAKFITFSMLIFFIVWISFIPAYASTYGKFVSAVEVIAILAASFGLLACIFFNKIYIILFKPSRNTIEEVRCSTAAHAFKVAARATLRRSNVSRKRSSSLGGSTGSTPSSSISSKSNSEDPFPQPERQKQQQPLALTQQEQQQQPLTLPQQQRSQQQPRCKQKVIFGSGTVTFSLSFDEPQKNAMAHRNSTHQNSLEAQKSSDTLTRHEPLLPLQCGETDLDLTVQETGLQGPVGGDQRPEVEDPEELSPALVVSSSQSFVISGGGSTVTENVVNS
assay info: Functional whole cell assay (modulation of human CaSR), IP1 accumulation in CHO-K1 cells
condition parameters: CHO-K1 cells stably expressing human CaSR, final Ca2+ 1.9 mM, IP1 readout; concentration giving 50% of maximum agonistic response
Consider the following molecules and their measured EC50 readings.

The following molecules have reported results that may help.
molecule	assay target	EC50
COc1cc([C@@H](C)N[C@H]2CC[C@@H](c3ccc(NCC(O)CO)nc3)C2)ccc1F (some centres unmarked) [Compound 115]	human CaSR (Homo sapiens, UniProt P41180)	0.2 to 1 µM
COc1cc([C@@H](C)N[C@H]2CC[C@@H](c3ccc(N4CCNC(=O)C4)nc3)C2)ccc1F [Compound 109]	human CaSR (Homo sapiens, UniProt P41180)	< 0.2 µM
COc1cc([C@@H](C)N[C@H]2CC[C@@H](c3cnc(N4CCN(C(C)=O)CC4)nc3)C2)ccc1F.O=CO [Compound 127]	human CaSR (Homo sapiens, UniProt P41180)	0.2 to 1 µM

Query :: # assay system human CaSR (Homo sapiens, UniProt P41180): give EC50 of C[C@@H](N[C@H]1CC[C@@H](c2ccc(NCCS(N)(=O)=O)nc2)C1)c1cccc(Cl)c1 [Compound 121]
Result :: 0.2 to 1 µM

Query :: Report measured EC50 on human CaSR (Homo sapiens, UniProt P41180); entry: C[C@@H](N[C@H]1CC[C@@H](c2ccc(NCCS(N)(=O)=O)nc2)C1)c1cccc2c1OCO2 [Compound 114]
Result :: 0.2 to 1 µM

----------
assay target: human CaSR (Homo sapiens, UniProt P41180)
Construct: The ORF coding for the human CaSR (genebank: NM_000388)
assay info: Functional whole cell assay (modulation of human CaSR), IP1 accumulation in CHO-K1 cells
condition parameters: CHO-K1 cells stably expressing human CaSR, final Ca2+ 1.9 mM, IP1 readout; concentration giving 50% of maximum agonistic response
property: EC50

# example entries with known answers
entry smiles	EC50
COc1cc([C@@H](C)N[C@H]2CC[C@@H](c3ccc(NCCS(N)(=O)=O)nc3)C2)ccc1F	< 200 nM
COc1cc([C@@H](C)N[C@H]2CC[C@@H](c3ccc(N4CCN(C(C)=O)CC4)nc3)C2)ccc1F	< 200 nM
COc1cc([C@@H](C)N[C@H]2CC[C@@H](c3cnc(N4CCNC(=O)C4)nc3)C2)ccc1F	< 200 nM
COc1cc([C@@H](C)N[C@H]2CC[C@@H](c3ccc(NC4CCNCC4)nc3)C2)ccc1F	< 200 nM
C[C@@H](N[C@H]1CC[C@@H](c2ccc(NCCNCCO)nc2)C1)c1cccc2ccccc12.O=CO.O=CO.O=CO	< 200 nM
CCOc1cccc([C@@H](C)N[C@H]2CC[C@@H](c3ccc(N4CCNC(=O)C4)nc3)C2)c1	200 to 1000 nM

Now turn to the next compound.
Query :: State its EC50 for this compound: COc1cc([C@@H](C)N[C@H]2CC[C@@H](c3cnc(NCCNS(C)(=O)=O)nc3)C2)ccc1F
Result :: 200 to 1000 nM

----------
assay info: Clearance in rat hepatocytes
Format: in vitro ADME
condition parameters: hepatic extraction ratio; 0.5 μM compound, 1×10^6 cells/mL, 20 min
property: Clearance (% Eh) in rat hepatocytes

Worked set:
compound	property	observed measurement
COc1cc([C@@H](C)N[C@H]2CC[C@@H](c3cnc(N4CCN(C(C)=O)CC4)nc3)C2)ccc1F.O=CO [Compound 127]	Clearance (% Eh) in rat hepatocytes	A (A: Eh < 33%)
C[C@@H](N[C@H]1CC[C@@H](c2ccc(NCCNCCO)nc2)C1)c1cccc2ccccc12.O=CO.O=CO.O=CO [Compound 101]	Clearance (% Eh) in rat hepatocytes	B (B: 33% ≦ Eh ≦ 75%)
COc1cc([C@@H](C)N[C@H]2CC[C@@H](c3ccc(NCCS(N)(=O)=O)nc3)C2)ccc1F [Compound 113]	Clearance (% Eh) in rat hepatocytes	A (A: Eh < 33%)
COc1cc([C@@H](C)N[C@H]2CC[C@@H](c3ccc(N4CCNC(=O)C4)nc3)C2)ccc1F [Compound 109]	Clearance (% Eh) in rat hepatocytes	A (A: Eh < 33%)
COc1cc([C@@H](C)N[C@H]2CC[C@@H](c3ccc(NCC(O)CO)nc3)C2)ccc1F (some centres unmarked) [Compound 115]	Clearance (% Eh) in rat hepatocytes	A (A: Eh < 33%)
COc1cc([C@@H](C)N[C@H]2CC[C@@H](c3ccc(NC4CCNCC4)nc3)C2)ccc1F [Compound 107]	Clearance (% Eh) in rat hepatocytes	A (A: Eh < 33%)
COc1cc([C@@H](C)N[C@H]2CC[C@@H](c3ccc(N4CCN(C(C)=O)CC4)nc3)C2)ccc1F [Compound 116]	Clearance (% Eh) in rat hepatocytes	A (A: Eh < 33%)

We next turn to a different compound, shown below.
Query :: Report Clearance (% Eh) in rat hepatocytes for COc1cc([C@@H](C)N[C@H]2CC[C@@H](c3cnc(N4CCNC(=O)C4)nc3)C2)ccc1F [Compound 126]
Result :: B (B: 33% ≦ Eh ≦ 75%)
